- TARGET_DESC: 229E Mpro (Human coronavirus 229E)
- Sequence (P0C6X1 2966-3267): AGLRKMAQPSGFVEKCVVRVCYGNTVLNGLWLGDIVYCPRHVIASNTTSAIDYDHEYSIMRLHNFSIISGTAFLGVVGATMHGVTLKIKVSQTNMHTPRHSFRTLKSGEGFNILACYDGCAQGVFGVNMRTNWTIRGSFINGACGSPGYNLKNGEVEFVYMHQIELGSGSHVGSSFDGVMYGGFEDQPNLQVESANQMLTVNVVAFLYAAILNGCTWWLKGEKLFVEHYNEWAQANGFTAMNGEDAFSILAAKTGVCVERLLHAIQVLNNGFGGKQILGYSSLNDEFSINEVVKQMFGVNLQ
- ASSAY_COMMENT: 229E Mpro enzymatic assay
- Assay type: biochemical, HCoV 229E
- COND: Table 5
MEASURED_ENDPOINT: IC50

molecule="C[C@@H](OC1CC1)[C@H](NC(=O)C(F)(F)F)C(=O)N1C[C@H]2[C@@H]([C@H]1C(=O)N[C@H](C#N)C[C@@H]1CC(C)(C)NC1=O)C2(C)C (single isomer, unassigned)" target_desc="229E Mpro (Human coronavirus 229E)" assay_value="< 2000 nM"
molecule=C[C@@H](OC(C)(C)C(F)(F)F)[C@H](NC(=O)C(F)(F)F)C(=O)N1C[C@H]2[C@@H]([C@H]1C(=O)N[C@H](C#N)C[C@@H]1CC(C)(C)NC1=O)C2(C)C target_desc="229E Mpro (Human coronavirus 229E)" assay_value="< 2000 nM"
molecule="COC(C)(C)[C@H](NC(=O)C(F)(F)F)C(=O)N1C[C@H]2[C@@H]([C@H]1C(=O)N[C@H](C#N)C[C@@H]1CC3(CC3)NC1=O)C2(C)C [Compound 139]" target_desc="229E Mpro (Human coronavirus 229E)" assay_value="< 2000 nM"
